tested.system: Proteinase K (Parengyodontium album, UniProt P06873)
Construct: purchased Roche
Sequence (P06873 106-384): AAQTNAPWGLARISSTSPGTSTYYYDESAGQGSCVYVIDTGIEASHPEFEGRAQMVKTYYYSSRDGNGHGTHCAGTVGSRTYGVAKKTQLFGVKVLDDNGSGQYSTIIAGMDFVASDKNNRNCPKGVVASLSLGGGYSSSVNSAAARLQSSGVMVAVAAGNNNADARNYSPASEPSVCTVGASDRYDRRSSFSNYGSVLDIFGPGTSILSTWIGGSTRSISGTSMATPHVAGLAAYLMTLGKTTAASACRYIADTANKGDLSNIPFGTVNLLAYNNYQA
measurement.protocol: Proteinase K inhibition, fluorogenic substrate assay (Suc-Ala-Ala-Pro-Phe-AMC)
Assay type: biochemical, Tritirachium album
run.parameters: Proteinase K; inhibitor concentration 111.111 nM; 40 min pre-incubation
reported.metric: Mean (RFU/s)
One number for each entry, in RFU/s.

{"compound": "CC=C1NC(=O)[C@@H](NC(=O)[C@@H](NC(=O)[C@@H]2CCCN2C(=O)CCC)[C@@H](C)OC(=O)C2CCCN2C(=O)CCC)[C@@H](C)OC(=O)[C@H](C(C)C)NC(=O)[C@H](Cc2ccc(O)cc2)N(C)C(=O)[C@H](Cc2ccccc2)N2C(=O)[C@H](CC[C@H]2O)NC1=O (stereo partly drawn) [Rivulariapeptolide 1155, rivulariapeptolide 1155]", "reported.metric": "Mean (RFU/s)", "unit.of.measurement": "RFU/s", "assay.result": 1.504}

Value sought for every listed compound: Mean (RFU/s).
1. CCCC(=O)N1CCCC1C(=O)NC(C(=O)NC1C(=O)NC(CC(C)C)C(=O)NC2CCC(O)N(C2=O)C(Cc2ccccc2)C(=O)N(C)C(Cc2ccc(O)cc2)C(=O)NC(C(C)C)C(=O)OC1C)C(C)OC(=O)C1CCCN1C(=O)CCC (stereo not drawn) [Rivulariapeptolide 1185, rivulariapeptolide 1185]
2. C/C=C1\NC(=O)[C@@H](NC(=O)[C@@H](NC(=O)[C@H](C)NC(=O)CCC)[C@@H](C)O)[C@@H](C)OC(=O)[C@H](C(C)C)NC(=O)[C@H](Cc2ccc(O)cc2)N(C)C(=O)[C@H](Cc2ccccc2)N2C(=O)[C@H](CC[C@H]2O)NC1=O [Molassamide, molassamide]
3. CC=C1NC(=O)[C@@H](NC(=O)[C@@H](NC(=O)[C@@H]2CCCN2C(=O)CCC)[C@@H](C)OC(=O)C2CCCN2C(=O)CCC)[C@@H](C)OC(=O)[C@H](C(C)C)NC(=O)[C@H](Cc2ccc(O)cc2)N(C)C(=O)[C@H](CC(C)C)N2C(=O)[C@H](CC[C@H]2O)NC1=O (stereo partly drawn) [Rivulariapeptolide 1121, rivulariapeptolide 1121]
4. C/C=C1\NC(=O)[C@@H](NC(=O)[C@@H](NC(=O)[C@H](C)NC(=O)CCC)[C@@H](C)O)[C@@H](C)OC(=O)[C@H](C(C)C)NC(=O)[C@H](Cc2ccc(O)c(Br)c2)N(C)C(=O)[C@H](Cc2ccccc2)N2C(=O)[C@H](CC[C@H]2O)NC1=O [Molassamide B, molassamide B]
5. CC=C1NC(=O)[C@@H](NC(=O)[C@@H](NC(=O)[C@@H]2CCCN2C(=O)CCC)[C@@H](C)O)[C@@H](C)OC(=O)[C@H](C(C)C)NC(=O)[C@H](Cc2ccc(O)cc2)N(C)C(=O)[C@H](Cc2ccccc2)N2C(=O)[C@H](CC[C@H]2O)NC1=O [Rivulariapeptolide 988, rivulariapeptolide 988]

Reply:
1.657
0.71
0.93
0.1
2.395
